// provenance: patent US7314958B2

# Test system: Alternaria solani
# EXPERIMENT_DESCRIPTION: Alternaria test (tomato)/protective
# Format: in vivo
# CONDITION_SET: 168 h, comparative experiment, application rate 500 ppm, read-out: Example D Alternaria test (tomato) protective efficacy in %
METRIC: pest or weed control at 500 ppm (%)
Only the number, expressed in %, is required.

Solved entries (count: 8):
{"columns": ["COMPOUND", "pest or weed control at 500 ppm [%]"],
 "data": [
  ["CC(C)CC(C)c1ccccc1NC(=O)c1ccccc1I (stereo not drawn) [Example 3]", 95],
  ["CCC(C)c1ccccc1NC(=O)c1ccccc1I (stereo not drawn) [No.14.4(p. 42)]", 10],
  ["CC(C)CC(C)c1ccccc1NC(=O)c1ccccc1Br (stereo not drawn) [Example 5]", 90],
  ["CCCCCCc1ccccc1NC(=O)c1ccccc1C(F)(F)F [No. 6.9(p. 24)]", 0],
  ["CC(C)CC(C)c1ccccc1NC(=O)c1ccccc1C(F)(F)F (stereo not drawn) [Example 2]", 95],
  ["CCCCCCc1ccccc1NC(=O)c1ccccc1I [No.14.9(p. 42)]", 0],
  ["CCCCc1ccccc1NC(=O)c1ccccc1I [No.14.3(p. 42)]", 0],
  ["CCC(C)c1ccccc1NC(=O)c1ccccc1C(F)(F)F (stereo not drawn) [No. 6.4(p. 24)]", 30]
]}

From here, focus on the item given below.
Request: Which pest or weed control at 500 ppm is listed for CCCCc1ccccc1NC(=O)c1ccccc1C(F)(F)F [No. 6.3(p. 24)] ?
Result: 0

====

pest or weed control at 500 ppm for assorted molecules
# Tested on: Erysiphe graminis f. sp. hordei
# EXPERIMENT_DESCRIPTION: Erysiphe test (barley)/protective
# Type: in vivo
# CONDITION_SET: Blumeria graminis, 168 h; comparative experiment; application rate 500 ppm; read-out: Example E Erysiphe test (barley) protective efficacy in %
Only the number, expressed in %, is required.

Solved entries (count: 5):
{"columns": ["MOLECULE", "TARGET_DESC", "UNIT_ABBREVIATION", "pest or weed control at 500 ppm"],
 "data": [
  ["CC(C)CC(C)c1ccccc1NC(=O)c1ccccc1Br (stereo not drawn)", "Erysiphe graminis f. sp. hordei", "%", 30],
  ["CCCCCCc1ccccc1NC(=O)c1ccccc1C(F)(F)F", "Erysiphe graminis f. sp. hordei", "%", 0],
  ["CC(C)CC(C)c1ccccc1NC(=O)c1ccccc1I (stereo not drawn)", "Erysiphe graminis f. sp. hordei", "%", 95],
  ["CCC(C)c1ccccc1NC(=O)c1ccccc1I (stereo not drawn)", "Erysiphe graminis f. sp. hordei", "%", 20],
  ["CCCCc1ccccc1NC(=O)c1ccccc1I", "Erysiphe graminis f. sp. hordei", "%", 0]
]}

Request: Which pest or weed control at 500 ppm is listed for CCC(C)c1ccccc1NC(=O)c1ccccc1C(F)(F)F (stereo not drawn) ?
Result: 0

Request: And what about the molecule CCCCc1ccccc1NC(=O)c1ccccc1C(F)(F)F ?
Result: 10

Request: And what about the molecule CCCCCCc1ccccc1NC(=O)c1ccccc1I ?
Result: 0

Request: And what about the molecule CC(C)CC(C)c1ccccc1NC(=O)c1ccccc1C(F)(F)F (stereo not drawn) ?
Result: 90
